- Tested on: RPMI-8226 leukemia
- MEASUREMENT_NOTES: NCI tumour cell line growth inhibition, 48 h; in the data active means GI50 below about 0.43 µM; inactive means the rest
Answer with one of the outcomes Y = active, N = inactive

Name the outcome recorded for COc1ccccc1/C=N\N=C(N/N=C/c1ccccc1OC)N/N=C/c1ccccc1OC in the assay.
N

Name the outcome recorded for CCCCCCCCCCCCSC(=N)N in the assay.
N

Name the outcome recorded for COC(=O)[C@]12CC[C@@H](C)[C@H](C)[C@@H]1C1=CC[C@@H]3[C@@]4(C)C=C(O)C(=O)[C@@]5(C)COC(=C54)C[C@@]3(C)[C@]1(C)CC2 in the assay.
N

Name the outcome recorded for N#CCc1ncc(-c2ccc(C(F)(F)F)cc2)c(NC2CCCCCC2)n1 in the assay.
N

Name the outcome recorded for O=c1cc(-c2ccccc2)[nH]n1-c1nc2ccccc2[nH]1 in the assay.
N

Name the outcome recorded for N#CC1=C(N)NC(=O)NC12Nc1ccccc1S2 (stereo not drawn) in the assay.
N

Name the outcome recorded for C#CC(F)(F)[C@]1(O)CC[C@H]2[C@@H]3CCC4=CC(=O)CCC4=C3[C@@H](c3ccc(C(C)=O)cc3)C[C@@]21C in the assay.
Y

Name the outcome recorded for C=C1C(=O)O[C@H]2[C@H]1CC/C(COC(=O)CSCC(=O)OC/C1=C/CC[C@@]3(C)O[C@H]3[C@H]3OC(=O)C(=C)[C@@H]3CC1)=C\CC[C@@]1(C)O[C@@H]21 in the assay.
N
